pKd by entry:
Molecular target: muscarinic receptors of the cerebral cortex (Rattus norvegicus)
Sequence (P08482 1-460): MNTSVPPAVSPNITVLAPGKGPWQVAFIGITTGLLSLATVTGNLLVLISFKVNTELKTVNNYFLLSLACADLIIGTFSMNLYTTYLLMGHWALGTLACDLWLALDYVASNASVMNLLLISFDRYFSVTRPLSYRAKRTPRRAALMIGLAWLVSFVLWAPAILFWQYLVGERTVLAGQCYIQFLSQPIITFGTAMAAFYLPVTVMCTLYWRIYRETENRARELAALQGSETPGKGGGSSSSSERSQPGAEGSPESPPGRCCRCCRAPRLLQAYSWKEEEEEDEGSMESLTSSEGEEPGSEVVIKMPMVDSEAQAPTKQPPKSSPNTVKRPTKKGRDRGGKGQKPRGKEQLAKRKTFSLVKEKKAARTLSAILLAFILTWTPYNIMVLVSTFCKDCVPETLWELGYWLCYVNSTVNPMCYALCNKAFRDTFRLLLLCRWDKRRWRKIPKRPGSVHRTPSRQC
pKd: −log10 of the molar value.
property_label: pKd

1. O=C1Nc2ccccc2N(C(=O)CCN2C=NCCC2)c2cscc21 : 8.15
2. N=C(N)N1C2CCC1CC(CC(=O)N1c3ccccc3NC(=O)c3cscc31)C2 (stereo not shown) : 8.40
3. CC1=NCCCN1CCC(=O)N1c2ccccc2C(=O)Nc2cccnc21 : 8.30
4. O=C1Nc2ccccc2N(C(=O)CC2CCN(C3=NCCN3)CC2)c2ccccc21 : 8.40
5. O=C1Nc2ccccc2N(C(=O)CCN2C=NCCC2)c2ccccc21 : 8.00
6. CC(=N)N1CCCC(C(=O)N2c3ccccc3NC(=O)c3ccccc32)C1 (stereo not shown) : 8.10
7. N=C(N)N1CCC(CC(=O)N2c3ccccc3NC(=O)c3ccccc32)CC1 : 8.49
8. CC1=NCCCN1CCC(=O)N1c2ccccc2NC(=O)c2ccccc21 : 8.60
9. O=C1Nc2cccnc2N(C(=O)CCN2C=NCCC2)c2ccccc21 : 8.00
10. CC(=N)N1CCCC(CC(=O)N2c3ccccc3NC(=O)c3ccccc32)C1 (stereo not shown) : 8.30
